System: 439559-082-T-J2-PDC spheroids viability;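 also: spheroids exposed to the agents for 7 days before readout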
Experiment: Anticancer human tumor 439559-082-T-J2-PDC patient-derived colon adenocarcinoma cell line growth inhibition [GQUAD]; active = viability on the fitted dose curve at most 10% of control; inactive = the rest
Conditions: second compound 0.316 µM; first compound 10 µM
// allowed return values: Yes (active), No (inactive)

Which outcome did this test record for the molecule CC1COCCN1c1cc(C2(S(C)(=N)=O)CC2)nc(-c2ccnc3[nH]ccc23)n1 (configuration not stated) + CN(C)c1ccc(Nc2c3ccc(NC(=O)CCN4CCCC4)cc3nc3cc(NC(=O)CCN4CCCC4)ccc23)cc1 ? No

Input CC1COCCN1c1cc(C2(O)CC3CCC(C2)O3)c2cnn(-c3ccn[nH]3)c2n1 (configuration not stated) + Cc1cnc(CNC(=O)c2c(=O)c3ccc(N4CCCN(C)CC4)nc3n3c2sc2ccccc23)cn1 No

Input COc1ccc([C@@H](O)c2cc(-c3ncnc4cc(N5CCOCC5)ccc34)c(F)cc2Cl)nn1 + CN(C)c1ccc(Nc2c3ccc(NC(=O)CCN4CCCC4)cc3nc3cc(NC(=O)CCN4CCCC4)ccc23)cc1 No

Next:
Which outcome did this test record for the molecule C=CC(=O)N1CCN(c2nc(=O)n(-c3c(C)ccnc3C(C)C)c3nc(-c4c(O)cccc4F)c(F)cc23)C(C)C1 (configuration not stated) + CN(C)c1ccc(Nc2c3ccc(NC(=O)CCN4CCCC4)cc3nc3cc(NC(=O)CCN4CCCC4)ccc23)cc1 ? No
